Where these numbers come from: the OPERA property sets (Mansouri et al. 2018)

endpointName: melting point
Put down the number, then write its unit next to it.

Known melting point results, listed for orientation:
# molecule, melting point
measured = [
    ("CN1CCN(C2=Nc3cc(Cl)ccc3Nc3ccccc32)CC1", "184 °C"),
    ("CC1=CC(=O)CC(C)(C)[C@@]1(O)/C=C/C(C)=C\\C(=O)O", "160 °C"),
    ("O=C(O)CCCCc1ccccc1", "57.5 °C"),
    ("CC(C)(O)CCSc1ccc(S(N)(=O)=O)cc1", "140 °C"),
    ("CCC(C)Nc1ccc(NC(C)CC)cc1 (stereo not drawn)", "18 °C"),
]

(Q) # return recorded melting point for input `CC(C)OC=O`
(A) -80 °C

(Q) Provide only the value of recorded melting point for `CCN(CC)C(N)=O`
(A) 75 °C

(Q) Please look at this molecule and report its melting point: CCN1C(=O)NC(c2ccccc2)C1=O (stereo not drawn)
(A) 94 °C

---

Think of -0.2 as a floor: if log10 vapour pressure (mmHg) stands on it or above, it is 1 (yes); beneath it, 0 (no).

Solved entries (count: 8):
# compound, cat
rows = [
    ("O=C(O)CCCCCC(=O)O", "0 (no)"),
    ("CCCCN(CC)C(=O)SCCC", "0 (no)"),
    ("CCCCCCCCCCCCCCCc1ccccc1", "0 (no)"),
    ("CCNc1nc(NC(C)C)nc(OC)n1", "0 (no)"),
    ("CC=C(C)C(C)C", "1 (yes)"),
    ("O=NN1CCCC1", "0 (no)"),
    ("O=C=S", "1 (yes)"),
    ("CN(C)c1ccccc1", "1 (yes)"),
]

(Q) Determine whether this compound has log10 vapour pressure (mmHg) no lower than -0.2: `Cc1ccc(F)cc1`
(A) 1 (yes)

(Q) Exam item: decide whether the reported log10 vapour pressure (mmHg) for `c1cc2cccc3c4cccc5cccc(c(c1)c23)c54` is at least -0.2.
(A) 0 (no)

(Q) State whether the measured log10 vapour pressure (mmHg) reaches -0.2, counting equality as reaching it, for `CCCCC(=O)OCC`
(A) 1 (yes)

(Q) Please tell me: is the compound `COc1c(Cl)ccc(Cl)c1C(=O)O` at or over -0.2 in terms of log10 vapour pressure (mmHg)?
(A) 0 (no)

(Q) Does the compound `Cc1cccc(O)c1[N+](=O)[O-]` have recorded log10 vapour pressure (mmHg) that is -0.2 or more?
(A) 0 (no)

(Q) Does `CCCCCC(=O)CC` have a reported log10 vapour pressure (mmHg) of at least -0.2?
(A) 1 (yes)

(Q) Determine whether measured log10 vapour pressure (mmHg) meets or exceeds -0.2 for `C[Si](F)(F)c1ccccc1`
(A) 1 (yes)

(Q) Record `CCCCCCCCCCCCCCCC1CCCCC1` ; criterion: log10 vapour pressure (mmHg) no lower than -0.2. Met?
(A) 0 (no)

(Q) Does CCOC(=O)CC(SP(=O)(OC)OC)C(=O)OCC (configuration not stated) have a reported log10 vapour pressure (mmHg) of at least -0.2?
(A) 0 (no)

(Q) Is log10 vapour pressure (mmHg) for `CCOC(=O)[C@@H](C)Oc1ccc(Oc2nc3ccc(Cl)cc3o2)cc1` at or above -0.2?
(A) 0 (no)

(Q) Kindly determine if log10 vapour pressure (mmHg) recorded for `Clc1ccc(Cl)s1` is above or exactly -0.2.
(A) 1 (yes)

(Q) Hi, just wondering whether `Cc1ccc(N)c(C)c1` shows log10 vapour pressure (mmHg) of -0.2 or higher.
(A) 0 (no)

(Q) State whether the measured log10 vapour pressure (mmHg) reaches -0.2, counting equality as reaching it, for `C[Si](C)(C)O[Si](C)(C)O[Si](C)(C)O[Si](C)(C)C`
(A) 0 (no)

(Q) Would you say `CSC(=O)c1cccc2nnsc12` shows log10 vapour pressure (mmHg) at minimum -0.2?
(A) 0 (no)

(Q) In plain terms: is recorded log10 vapour pressure (mmHg) at least -0.2 for `CCC(C)(O)CC` ?
(A) 1 (yes)

(Q) Hello, I need to know if `CC(C)(C)c1cccc(O)c1` has measured log10 vapour pressure (mmHg) not below -0.2. Thanks!
(A) 0 (no)

(Q) Please tell me: is the compound `C=CCC` at or over -0.2 in terms of log10 vapour pressure (mmHg)?
(A) 1 (yes)

(Q) Say whether `FC(F)(Cl)C(Cl)(Cl)Cl` shows log10 vapour pressure (mmHg) of -0.2 or more.
(A) 1 (yes)
